test system: SARS-CoV-2; assay: Antiviral activity against SARS-CoV-2 infected in African green monkey Vero E6 cells assessed as inhibition of viral replication by qRT-PCR analysis; format: functional, organism-based; settings: Severe acute respiratory syndrome coronavirus 2, Vero C1008
property label: EC50 (nM)
Report only the number, with the unit nM understood.

Q. For [2H]C([2H])(O)[C@H]1O[C@@](C#N)(c2ccc3c(N)ncnn23)[C@H](O)[C@@H]1O , what is its reported EC50?
A. 250

---

test system: U-937; test: Cytotoxicity against human U-937 cells assessed as reduction in cell growth incubated for 72 hrs by MTT assay; format: functional, cell-based; conditions: U-937, 72 h
property label: IC50 (nM)
Report only the number, with the unit nM understood.

Q. Recorded IC50 for Nc1ncnc2c1ncn2Cc1ccc(-c2cn(CCCCCCC(=O)NO)nn2)cc1 with U-937, please?
A. 1320
